target: hERG (KCNH2) (Homo sapiens); experiment: Inhibition of human ERG expressed in CHO cells assessed as decrease in peak tail current at 30 uM after 5 mins at -80 mV holding potential by patch clamp assay relative to control; format: cell-based; settings: CHO cells expressing human ERG
Sequence (Q12809 whole entry): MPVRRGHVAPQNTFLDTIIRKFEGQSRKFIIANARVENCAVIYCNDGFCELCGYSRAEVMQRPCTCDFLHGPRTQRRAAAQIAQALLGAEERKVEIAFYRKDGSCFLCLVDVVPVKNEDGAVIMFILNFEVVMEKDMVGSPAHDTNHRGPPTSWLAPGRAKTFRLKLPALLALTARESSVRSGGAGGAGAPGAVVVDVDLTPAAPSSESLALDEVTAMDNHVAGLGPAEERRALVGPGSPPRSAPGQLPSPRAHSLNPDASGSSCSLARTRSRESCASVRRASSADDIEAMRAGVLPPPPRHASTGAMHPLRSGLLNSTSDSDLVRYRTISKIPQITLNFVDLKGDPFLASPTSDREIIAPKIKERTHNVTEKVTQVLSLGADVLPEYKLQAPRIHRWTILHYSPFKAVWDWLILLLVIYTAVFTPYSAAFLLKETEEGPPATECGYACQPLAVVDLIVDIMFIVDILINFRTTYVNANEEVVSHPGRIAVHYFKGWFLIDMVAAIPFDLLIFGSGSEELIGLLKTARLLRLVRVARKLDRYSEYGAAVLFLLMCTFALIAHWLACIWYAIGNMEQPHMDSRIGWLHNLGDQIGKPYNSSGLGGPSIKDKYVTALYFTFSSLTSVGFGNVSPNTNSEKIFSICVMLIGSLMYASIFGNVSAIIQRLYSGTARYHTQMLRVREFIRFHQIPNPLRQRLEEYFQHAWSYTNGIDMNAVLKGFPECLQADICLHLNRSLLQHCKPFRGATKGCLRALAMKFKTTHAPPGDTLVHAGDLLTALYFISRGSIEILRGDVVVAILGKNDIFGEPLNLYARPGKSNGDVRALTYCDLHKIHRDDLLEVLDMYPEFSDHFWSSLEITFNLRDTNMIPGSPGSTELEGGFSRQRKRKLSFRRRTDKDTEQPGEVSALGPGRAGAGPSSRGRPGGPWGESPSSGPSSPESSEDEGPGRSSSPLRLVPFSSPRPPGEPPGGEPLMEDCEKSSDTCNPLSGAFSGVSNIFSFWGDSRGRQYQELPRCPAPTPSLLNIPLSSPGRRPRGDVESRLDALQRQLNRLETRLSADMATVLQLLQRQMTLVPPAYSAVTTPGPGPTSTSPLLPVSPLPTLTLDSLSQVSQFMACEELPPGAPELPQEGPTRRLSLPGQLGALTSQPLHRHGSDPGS
Assign class by inhibition at 5 min, 30 µM: not lower than 20% means Criterion met; lower than 20% means Criterion not met.

CCOc1cc(CN2CC3(CC([C@H]4CC[C@H](C(=O)O)CC4)=NO3)C2)cc(OCC)c1-c1ccc(F)cc1; Criterion not met

query: Could you please find out whether `CCOc1cc(CN2CC3(CC(N4CC(C(=O)O)C4)=NO3)C2)cc(OCC)c1-c1ccc(F)cc1` has inhibition at 5 min, 30 µM that meets 20% or exceeds it?
result: Criterion not met

query: Could you please find out whether `CCOc1cc(CN2CC3(CC([C@H]4CC[C@@H](C(=O)O)CC4)=NO3)C2)cc(OCC)c1-c1ccc(F)cc1` has inhibition at 5 min, 30 µM that meets 20% or exceeds it?
result: Criterion met

query: Could you please find out whether CCOc1cc(CN2CC3(CC(N4CCC(C(=O)O)C4)=NO3)C2)cc(OCC)c1-c1ccc(F)cc1 (stereo unspecified) has inhibition at 5 min, 30 µM that meets 20% or exceeds it?
result: Criterion not met

query: Could you please find out whether `CCOc1cc(CN2CC3(CC(c4ccc(C(=O)O)cc4)=NO3)C2)cc(OCC)c1-c1ccc(F)cc1` has inhibition at 5 min, 30 µM that meets 20% or exceeds it?
result: Criterion met

query: Could you please find out whether `CCOc1cc(CN2CC3(CC(c4ccc(C(=O)O)cc4Cl)=NO3)C2)cc(OCC)c1-c1ccc(F)cc1` has inhibition at 5 min, 30 µM that meets 20% or exceeds it?
result: Criterion met

query: Could you please find out whether `CCOc1cc(C(=O)N2CC3(CC(c4ccc(C(=O)O)cc4)=NO3)C2)cc(OCC)c1-c1ccc(F)cc1` has inhibition at 5 min, 30 µM that meets 20% or exceeds it?
result: Criterion not met

query: Could you please find out whether `CCOc1cc(CN2CC3(CC(c4ccc(C(=O)O)cc4C)=NO3)C2)cc(OCC)c1-c1ccc(F)cc1` has inhibition at 5 min, 30 µM that meets 20% or exceeds it?
result: Criterion not met

query: Could you please find out whether CCOc1cc(C(C)N2CC3(CC(c4ccc(C(=O)O)cc4)=NO3)C2)cc(OCC)c1-c1ccc(F)cc1 (stereo unspecified) has inhibition at 5 min, 30 µM that meets 20% or exceeds it?
result: Criterion not met

query: Could you please find out whether `CCOc1cc(CN2CC3(CC(c4ccccc4C(=O)O)=NO3)C2)cc(OCC)c1-c1ccc(F)cc1` has inhibition at 5 min, 30 µM that meets 20% or exceeds it?
result: Criterion not met

query: Could you please find out whether `CCOc1cc(CN2CC3(CC(N4CCC(C(=O)O)CC4)=NO3)C2)cc(OCC)c1-c1ccc(F)cc1` has inhibition at 5 min, 30 µM that meets 20% or exceeds it?
result: Criterion not met

Hey, just so you know, these numbers are from ChEMBL document CHEMBL4052694.
